- procedure_summary: Phase I study, pharmacokinetics following oral dosing
- Type: in vivo, human
- cond: human, plasma; 45 mg/day oral, PK outlier removed; Table 2, n=28
parameter: AUC (µM·h)
# output: bare number, implied unit µM·h

Tell me the measured AUC of CCS(=O)(=O)N1CCN(c2ccc(Nc3ncc(C(N)=O)c(NC4CC4)n3)cc2)CC1 [Cerdulatinib] , please.
26.6

* * *

- procedure_summary: Phase I study, pharmacokinetics following oral dosing
- Assay type: in vivo, human
- cond: human, plasma, oral; 50 mg/day; Table 3, n=43
parameter: AUC (µM·h)
Return type: number; implicit unit µM·h.

Entry CCS(=O)(=O)N1CCN(c2ccc(Nc3ncc(C(N)=O)c(NC4CC4)n3)cc2)CC1 [Cerdulatinib] has what AUC?
23.8
